System: Escherichia coli
Test: Antimicrobial activity against Escherichia coli CU164A harboring beta-lactamase L2 by liquid microdilution method
Lab note: cut-off is 300 µg/mL. Strictly less in MIC is satisfied. Exactly 300 µg/mL or more is not satisfied.

Previously resolved entries follow.
Answer whether the compound CO/N=C(\C(=O)N[C@@H]1C(=O)N2C(C(=O)O)=C(COC(C)=O)CS[C@H]12)c1csc(N)n1 [CEFOTAXIME] has MIC strictly less than 300 µg/mL satisfied

Answer whether the compound CC(C)(O/N=C(\C(=O)N[C@@H]1C(=O)N2C(C(=O)[O-])=C(C[n+]3ccccc3)CS[C@H]12)c1csc(N)n1)C(=O)O [CEFTAZIDIME] has MIC strictly less than 300 µg/mL satisfied

Answer whether the compound CCN1CCN(C(=O)N[C@@H](C(=O)N[C@@H]2C(=O)N3[C@@H]2SC(C)(C)[C@@H]3C(=O)O)c2ccccc2)C(=O)C1=O [PIPERACILLIN] has MIC strictly less than 300 µg/mL satisfied

Answer whether the compound CC(=O)OCC1=C(C(=O)O)N2C(=O)[C@@H](NC(=O)Cc3cccs3)[C@H]2SC1 [CEPHALOTHIN] has MIC strictly less than 300 µg/mL satisfied

Alright, here's another compound for you.
Answer whether the compound CC1(C)S[C@@H]2[C@H](NC(=O)[C@H](N)c3ccc(O)cc3)C(=O)N2[C@H]1C(=O)O [AMOXICILLIN] has MIC strictly less than 300 µg/mL not satisfied

----------
System: Escherichia coli
Assay: Antimicrobial activity against Escherichia coli MC4100A harboring beta-lactamase AmpC by liquid microdilution method
Assay type: functional
This listing pairs compounds with measured MIC.
Give your result in µg/mL as a bare value.

Query: MIC; subject: CC(C)(O/N=C(\C(=O)N[C@@H]1C(=O)N2C(C(=O)[O-])=C(C[n+]3ccccc3)CS[C@H]12)c1csc(N)n1)C(=O)O 0.25

Query: MIC; subject: CC1(C)S[C@@H]2[C@H](NC(=O)[C@H](N)c3ccc(O)cc3)C(=O)N2[C@H]1C(=O)O 512

Query: MIC; subject: CCN1CCN(C(=O)N[C@@H](C(=O)N[C@@H]2C(=O)N3[C@@H]2SC(C)(C)[C@@H]3C(=O)O)c2ccccc2)C(=O)C1=O 32

Query: MIC; subject: CC(=O)OCC1=C(C(=O)O)N2C(=O)[C@@H](NC(=O)Cc3cccs3)[C@H]2SC1 1020

Query: MIC; subject: CO/N=C(\C(=O)N[C@@H]1C(=O)N2C(C(=O)O)=C(COC(C)=O)CS[C@H]12)c1csc(N)n1 0.5

----------
This listing pairs compounds with measured log10 of MIC.
Tested on: Escherichia coli
Assay: Antimicrobial activity against Escherichia coli MC4100A harboring beta-lactamase CTX-M-14 by liquid microdilution method
Format: functional
Form field - Quantity: MIC; Unit: µg/mL; Scale: log10

Example entries begin here.
Fill in the recorded log10 of MIC for this compound, with Escherichia coli as test system: CC(C)(O/N=C(\C(=O)N[C@@H]1C(=O)N2C(C(=O)[O-])=C(C[n+]3ccccc3)CS[C@H]12)c1csc(N)n1)C(=O)O [CEFTAZIDIME] 0.00

Fill in the recorded log10 of MIC for this compound, with Escherichia coli as test system: CC1(C)S[C@@H]2[C@H](NC(=O)[C@H](N)c3ccc(O)cc3)C(=O)N2[C@H]1C(=O)O [AMOXICILLIN] 3.31

Fill in the recorded log10 of MIC for this compound, with Escherichia coli as test system: CO/N=C(\C(=O)N[C@@H]1C(=O)N2C(C(=O)O)=C(COC(C)=O)CS[C@H]12)c1csc(N)n1 [CEFOTAXIME] 1.20

Fill in the recorded log10 of MIC for this compound, with Escherichia coli as test system: CCN1CCN(C(=O)N[C@@H](C(=O)N[C@@H]2C(=O)N3[C@@H]2SC(C)(C)[C@@H]3C(=O)O)c2ccccc2)C(=O)C1=O [PIPERACILLIN] 2.71

Kindly consider the entry below.
Fill in the recorded log10 of MIC for this compound, with Escherichia coli as test system: CC(=O)OCC1=C(C(=O)O)N2C(=O)[C@@H](NC(=O)Cc3cccs3)[C@H]2SC1 [CEPHALOTHIN] 3.01

----------
Tested on: Escherichia coli
Experiment: Antimicrobial activity against Escherichia coli CU164A harboring beta-lactamase L1 by liquid microdilution method
Format: functional
This listing pairs compounds with measured log10 of MIC.
Form field - Quantity: MIC; Unit: µg/mL; Scale: log10

Example entries begin here.
Query: log10 of MIC; subject: CC(=O)OCC1=C(C(=O)O)N2C(=O)[C@@H](NC(=O)Cc3cccs3)[C@H]2SC1 2.11

Query: log10 of MIC; subject: CCN1CCN(C(=O)N[C@@H](C(=O)N[C@@H]2C(=O)N3[C@@H]2SC(C)(C)[C@@H]3C(=O)O)c2ccccc2)C(=O)C1=O 1.51

Query: log10 of MIC; subject: CC1(C)S[C@@H]2[C@H](NC(=O)[C@H](N)c3ccc(O)cc3)C(=O)N2[C@H]1C(=O)O 2.71

Query: log10 of MIC; subject: CO/N=C(\C(=O)N[C@@H]1C(=O)N2C(C(=O)O)=C(COC(C)=O)CS[C@H]12)c1csc(N)n1 0.00

Next:
Query: log10 of MIC; subject: CC(C)(O/N=C(\C(=O)N[C@@H]1C(=O)N2C(C(=O)[O-])=C(C[n+]3ccccc3)CS[C@H]12)c1csc(N)n1)C(=O)O 0.90
